biological target: human CASKIN2 SAM1-SAM2 tandem (483-634), G537D/K540E double mutant (human); experiment: AUC; sedimentation velocity, 300 mM NaCl, 20 mM sodium phosphate pH 7.8, 20 °C, 50,000 rpm; 10 and 34 μM loading, Kd fitted from the 34 μM experiment; monomer-dimer equilibrium (dimer to monomers)
result type: pKd
Numbers only, as −log10 of the molar value.

Reported pKd, substance human CASKIN2 SAM1-SAM2 tandem (483-634), G537D/K540E double mutant (from UniProt Q8WXE0 483-634) (domain or fragment) : ____ 4.00
